- SYSTEM UNDER TEST: T1, human BCL-XL (residues 1-210, with 27-81 and 210-233 removed) (human, UniProt Q07817-1 1-209, 27-81 removed, biotin (biotinylated for SPR; site not stated))
- T1 construct: BCL-XL, human; printed as residues 1-210, with 27-81 and 210-233 removed (so the last residue is 209 or 210); source: E. coli BL21 (DE3), purified (Ni-NTA, Superdex 75, RESOURCE Q, Superdex 200)
- T1 sequence (Q07817 other isoform, or with tags, fused parts or gaps 27-81 removed | 27-81 removed): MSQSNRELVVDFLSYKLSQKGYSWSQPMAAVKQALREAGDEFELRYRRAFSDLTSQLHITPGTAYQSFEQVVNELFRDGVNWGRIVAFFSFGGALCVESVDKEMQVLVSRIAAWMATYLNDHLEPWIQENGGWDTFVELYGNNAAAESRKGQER
- ASSAY PROTOCOL: SPR; Biacore T200; biotinylated proteins immobilised on a CAP sensor chip; peptides flowed in multiple cycles (25-12800 nM, depending on the peptides) at 30 uL/min; 10 mM PBS, 50 uM EDTA, 0.05% Tween-20, 25 °C; affinity fitting, 1:1 binding model
- RUN PARAMETERS: both partners purified
Positions of bridges follow the written chain, without caps; N, C: chain ends. No end group written: not given here. cADT = 2-aryl-4,5-dihydrothiazole (ADT) linker
// reported Kd for each item listed
Just the number in nM, nothing appended.

CPIRYPWDEFC (linker 1-11 via cADT (inferred), cp5 is cp2 with E6 substituted by P6; source: synthetic peptide) [cp5]	40

Reported Kd ( CPIRYEWDEFC (linker 1-11 via cADT (inferred), cyclic peptide from the second phage library CPXRYXWDXXC screened against BCL-2; they agree with I3, E6, E9 and F10 named in the text) [cp2] ) = 730

Kindly note the recorded Kd for CPIRYPWDVEC (linker 1-11 via cADT (inferred), cyclic peptide from the second phage library CPXRYXWDXXC screened against BCL-XL; they agree with P6, V9 and E10 named in the text) [cp3] , which is 90

Kd recorded for this binder, CPIRYGWDEFC (linker 1-11 via cADT (inferred), cp4 is cp2 with E6 substituted by G6; source: synthetic peptide) [cp4] , is 470
